test system: Escherichia coli; experiment: Antimicrobial activity against Escherichia coli CGMCC 1.2340; assay type: functional, organism-based
property.measured: IC50 (µM)
Write the value in µM as a bare number.

chem.smiles | target.or.test.system | property.measured | numeric.value
COC(=O)C1=CC(=O)C=C(OC)[C@]12Oc1cc(C)cc(OC(=O)c3c(O)cc(C)cc3Oc3c(OC)cc(O)cc3C(=O)OC)c1C2=O | Escherichia coli | IC50 | 12.9

Would you kindly look at the next entry?
Q. Request - read-out IC50 | tested on Escherichia coli | compound CN[C@@H]1[C@H](O[C@H]2[C@H](O[C@H]3[C@H](O)[C@@H](O)[C@H](N=C(N)N)[C@@H](O)[C@@H]3N=C(N)N)O[C@@H](C)[C@]2(O)C=O)O[C@@H](CO)[C@H](O)[C@H]1O
A. 1.05

---

pIC50 values, listed per item
tested on: Escherichia coli; experiment: Antimicrobial activity against Escherichia coli CGMCC 1.2340; assay type: functional, organism-based
pIC50: −log10 of the molar value.

molecule | target.or.test.system | pIC50
CCCCOC(=O)c1c(O)cc(C)cc1Oc1c(OC)cc(O)cc1C(=O)OC [BUTYL ASTERRATE] | Escherichia coli | < 4.30

Q. Please give the measured pIC50 for this molecule: CCOC(=O)c1c(O)cc(C)cc1Oc1c(OC)cc(O)cc1C(=O)OC [ETHYL ASTERRATE]
A. < 4.30

Q. Please give the measured pIC50 for this molecule: COC(=O)c1cc(OC(=O)c2c(O)cc(C)cc2Oc2c(OC)cc(O)cc2C(=O)OC)cc(OC)c1Oc1cc(C)cc(O)c1C(=O)OC
A. < 4.30
